- System: Telomelysin (OBP-301)
- experiment_description: XTT assay, protection from cytopathic effect of Telomelysin in A549 cells
- Type: cell-based, adenovirus
- assay_setup: Telomelysin, A549 cells, XTT; read-out: EC50, CDV concentration that archive the protection to 50%
assay_readout: EC50 (µM)
Give a bare numeral; the unit µM is implied.

Give reported EC50 value for Nc1ccn(C[C@@H](CO)OCP(=O)(O)O)c(=O)n1.O.O [CDV, dihydrate] 35.9

// data source = patent US20090181931A1
